protocol_text: Ionization constant, pKa of the compound by UV spectroscopy
Format: physicochemical
I'd appreciate it if you could supply pKa values for the items below.
One number for each entry.

In the examples that follow, each entry is paired with its recorded pKa.
{"chemical_structure": "COc1ccc(N(Cc2nnn[nH]2)Cc2ccc(F)cc2F)cc1", "pKa": 4.31}
{"chemical_structure": "Fc1ccccc1CN(Cc1nnn[nH]1)c1ccccc1", "pKa": 4.22}
{"chemical_structure": "Cc1ccc(N(Cc2nnn[nH]2)Cc2ccc(Cl)cc2Cl)cc1", "pKa": 4.26}
{"chemical_structure": "Clc1ccccc1CN(Cc1nnn[nH]1)c1ccccc1", "pKa": 4.34}

Field: pKa. Fill in for each record below.
1. Clc1ccc(CN(Cc2nnn[nH]2)c2ccccc2)c(Cl)c1
2. Clc1ccc(CN(Cc2nnn[nH]2)c2ccccc2)cc1
3. Clc1ccc(CN(Cc2nnn[nH]2)c2ccccc2)cc1Cl
4. CCCCCCN(Cc1nnn[nH]1)c1ccccc1
5. CCCCCCCCN(Cc1nnn[nH]1)c1ccccc1
6. CCCCCCCCCCN(Cc1nnn[nH]1)c1ccccc1
7. Fc1cccc(CN(Cc2nnn[nH]2)c2ccccc2)c1

RESULT:
1. 4.54
2. 4.38
3. 4.49
4. 4.78
5. 4.83
6. 4.87
7. 4.19

###

Test system: Candida
protocol_text: Antifungal activity against Candida mycoderma after 24 hrs by micro broth dilution method
Assay type: functional
parameter_measured: MIC (µg/mL)
One number for each entry, in µg/mL.

For orientation, consider the following solved cases.
{"chemical_structure": "Clc1ccccc1CN(Cc1nnn[nH]1)c1ccccc1", "unit_abbrev": "µg/mL", "result_number": 4}
{"chemical_structure": "COc1ccc(N(Cc2nnn[nH]2)Cc2ccc(Cl)cc2Cl)cc1", "unit_abbrev": "µg/mL", "result_number": 8}
{"chemical_structure": "COc1ccc(N(Cc2nnn[nH]2)Cc2ccc(F)cc2F)cc1", "unit_abbrev": "µg/mL", "result_number": 16}
{"chemical_structure": "N#CCN(Cc1ccc(Cl)cc1Cl)c1ccccc1", "unit_abbrev": "µg/mL", "result_number": 64}
{"chemical_structure": "Cc1ccc(N(Cc2nnn[nH]2)Cc2ccc(Cl)cc2Cl)cc1", "unit_abbrev": "µg/mL", "result_number": 8}

State recorded MIC for all listed compounds.
1. COc1ccc(N(CC#N)Cc2ccc(F)cc2F)cc1
2. N#CCN(Cc1cccc(F)c1)c1ccccc1

RESULT:
[256, 128]

###

Tested on: Candida
protocol_text: Antifungal activity against Candida mycoderma after 24 hrs by micro broth dilution method
Assay type: functional
Classify: t when MIC is strictly less than 60 µg/mL; f when MIC is not.

Example results:
{"chemical_structure": "OC(Cn1cncn1)(Cn1cncn1)c1ccc(F)cc1F", "classification": "t"}
{"chemical_structure": "Fc1cccc(CN(Cc2nnn[nH]2)c2ccccc2)c1", "classification": "t"}
{"chemical_structure": "N#CCN(Cc1ccccc1F)c1ccccc1", "classification": "f"}
{"chemical_structure": "CCCCCCCCN(CC#N)c1ccccc1", "classification": "f"}
{"chemical_structure": "Clc1ccc(CN(Cc2nnn[nH]2)c2ccccc2)c(Cl)c1", "classification": "t"}

QUERY: Field: below-cutoff. Rule: recorded MIC strictly less than 60 µg/mL. Subject: `N#CCN(Cc1ccccc1Cl)c1ccccc1`
RESULT: f

QUERY: What do you have for `CCCCCCCCCCCCN(CC#N)c1ccccc1` ?
RESULT: f

###

For each record, write down the corresponding MIC.
Test system: Candida
protocol_text: Antifungal activity against Candida mycoderma after 24 hrs by micro broth dilution method
Type: functional
Numbers only, in µg/mL.

{"chemical_structure": "CCCCCCCCCCCCN(Cc1nnn[nH]1)c1ccccc1", "unit_abbrev": "µg/mL", "MIC": 64}

Give measured MIC for every item shown.
1. Cc1ccc(N(CC#N)Cc2ccc(F)cc2F)cc1
2. N#CCN(Cc1ccc(Cl)cc1)c1ccccc1
3. Cc1ccc(N(Cc2nnn[nH]2)Cc2ccc(F)cc2F)cc1
4. CCCCCCCCN(Cc1nnn[nH]1)c1ccccc1
5. Fc1ccccc1CN(Cc1nnn[nH]1)c1ccccc1
6. N#CCN(Cc1ccc(Cl)c(Cl)c1)c1ccccc1
7. N#CCN(Cc1ccc(F)cc1)c1ccccc1

RESULT:
1: 128; 2: 128; 3: 16; 4: 32; 5: 16; 6: 128; 7: 128

# credit: ChEMBL document CHEMBL3621169
